Assay: Emulsion stability testing of nonionic emulsifiers, Hallcomid solvent series
Type: physicochemical
Details: Tebuconazole 360 g/L in Hallcomid M-8-10, 34 ppm water
# reported 24 h separation, amount; entries follow
Form entry: value (mL) — number only.

> print(dat)
                                   molecule     experimental.readout  reported.measurement
1  CCC=CCCCCCCCCOCCO (mixture of isomers) [A12-4]  24 h separation, amount                   5.9
2                   C=CCCCCCCCCOCCO [A10-4]  24 h separation, amount                   6.5
3  CCC=CCCCCCCCCOCCOCCOCCOCCOCCOCCOCCOCCOCCOCCOCCOCCOCCOCCOCCO (mixture of isomers) [A12-16]  24 h separation, amount                     3
4  CCC=CCCCCCCCCOCCOCCOCCOCCOCCO (mixture of isomers) [A12-10]  24 h separation, amount                   5.1

# get_value(readout='24 h separation, amount', item= C=CCCCCCCCCOCCOCCOCCO [A10-7] ) 5

Return reported 24 h separation, amount; argument: CCC=CCCCCCCCCOCCOCCOCCO (mixture of isomers) [A12-7] 5.1

// lookup 24 h separation, amount for C=CCCCCCCCCOCCOCCOCCOCCOCCO [A10-10] 5

Would you kindly share the measured 24 h separation, amount for C=CCCCCCCCCOCCOCCOCCOCCOCCOCCOCCO [A10-13] ? 4.9

So what does the record say about 24 h separation, amount for CCC=CCCCCCCCCOCCOCCOCCOCCOCCOCCOCCO (mixture of isomers) [A12-13] ? 4.1
